Each recorded value in this set is attributed to patent US9980943B2.

Provide the reported EC50 of each item.
Tested on: α7 integrin (LacZ reporter in α7LacZ+/− myoblasts)
Assay: qHTS of the LOPAC library and MLSMR (online screen, α7LacZ+/− myoblasts)
Details: Mus musculus, Myoblast, read-out: Fit LogAC50 (converted)
Numbers only, in µM.

[[record]]
molecule = "CCCCN(CCCC)CCNC(=O)c1cn(C)c2ccc(S(=O)(=O)N(C)C3CCCCC3)cc2c1=O"
readout_label = "EC50"
readout_value = 10

[[record]]
molecule = "Cc1ccc(NC(=O)NCc2nc3ccccc3n2C)cc1"
readout_label = "EC50"
readout_value = 4.47

[[record]]
molecule = "Cc1ccc(CNc2ncnc(N)c2[N+](=O)[O-])cc1"
readout_label = "EC50"
readout_value = 10

[[record]]
molecule = "CNP(=O)(Oc1ccccc1)OC12CC3CC(CC(C3)C1)C2 (stereo not drawn)"
readout_label = "EC50"
readout_value = 10


Dear reader, for each entry below, please note its EC50.
1. COc1cccc(C(=O)NCC(=O)N2CCC3(CC2)NCCc2[nH]cnc23)c1
2. COc1ccc(Nc2ncnc3ccc(C)cc23)cc1
3. CC(=O)Nc1ccc(N(C(=O)c2cnccn2)C(C(=O)NC2CCCCC2)c2ccc(F)cc2)cc1 (stereo not drawn)
4. Cc1ccc(NCc2nnc(SCC(=O)Nc3nnc(C)s3)n2C)cc1
5. O=S(=O)(N/C(=N/C1CCCCC1)c1ccccc1F)c1ccccc1

Result:
1. 11.2
2. 3.55
3. 11.2
4. 10
5. 10

====

System: β-galactosidase in CMV-LacZ C2C12 myoblasts
Assay: CMV-LacZ secondary screen in C2C12 myoblasts (β-Gal stabilizing assay)
Assay type: cell-based, mouse
Settings: 5 uM; CMV-LacZ C2C12 myoblasts
Doc: threshold 0.9 (exclusive). Items with CMV-LACZ in Myoblasts (β-galactosidase activity relative to DMSO) beneath it return Y; others return N.

Recorded results for 2 compounds are shown here.
[[record]]
compound = "CCOC(=O)c1cc(-c2cccs2)nc2c1c(C)nn2-c1ccccn1 [MLS001006516-01]"
test_target = "β-galactosidase in CMV-LacZ C2C12 myoblasts"
group = "N"

[[record]]
compound = "CN(CC(=O)Nc1cccc(F)c1)C(=O)c1ccc(-c2ccc(Cl)cc2)o1 [MLS001078811-01]"
test_target = "β-galactosidase in CMV-LacZ C2C12 myoblasts"
group = "Y"


From here, focus on the item given below.
Problem: Is CMV-LACZ in Myoblasts (β-galactosidase activity relative to DMSO) strictly under 0.9 for the entry Cc1nc(Nc2ccccc2F)c2oc3ccccc3c2n1 [MLS001215123-01] ?
Result: N

====

Test system: β-galactosidase in CMV-LacZ C2C12 myotubes
Experiment: CMV-LacZ secondary screen in C2C12 myotubes (β-Gal stabilizing assay)
Format: cell-based, mouse
Conditions: 40 uM; C2C12 CMV-LacZ myotubes; fold relative to DMSO
Use TRUE when the recorded CMV-LACZ in Myotubes, signal relative to DMSO is no lower than 1; use FALSE when it is lower.

Recorded results for 2 compounds are shown here.
[[record]]
compound = "COC(=O)c1ccccc1NC(=O)CSc1nc(O)c(-c2ccccc2)c(=O)[nH]1"
group = "FALSE"

[[record]]
compound = "COc1ccc(C(=O)Nc2ccc(Cl)cn2)cc1Cl"
group = "TRUE"


Problem: Confirm if CMV-LACZ in Myotubes, signal relative to DMSO reported for the compound `COc1ccccc1C(=O)NCCOc1ccc(C(C)(C)C)cc1` is 1 or above.
Result: FALSE

Problem: Confirm if CMV-LACZ in Myotubes, signal relative to DMSO reported for the compound `O=C(CCc1ccccc1)c1nnc(-c2ccccc2)o1` is 1 or above.
Result: TRUE

Problem: Confirm if CMV-LACZ in Myotubes, signal relative to DMSO reported for the compound `COc1ccccc1NS(=O)(=O)c1cc(NC(=O)c2ccc(Cl)nc2)ccc1N1CCCC1` is 1 or above.
Result: TRUE
